# EXPERIMENTAL_TARGET: Human recombinant sEH (Homo sapiens, UniProt P34913)
# Construct: made in house
# Sequence (P34913 whole entry): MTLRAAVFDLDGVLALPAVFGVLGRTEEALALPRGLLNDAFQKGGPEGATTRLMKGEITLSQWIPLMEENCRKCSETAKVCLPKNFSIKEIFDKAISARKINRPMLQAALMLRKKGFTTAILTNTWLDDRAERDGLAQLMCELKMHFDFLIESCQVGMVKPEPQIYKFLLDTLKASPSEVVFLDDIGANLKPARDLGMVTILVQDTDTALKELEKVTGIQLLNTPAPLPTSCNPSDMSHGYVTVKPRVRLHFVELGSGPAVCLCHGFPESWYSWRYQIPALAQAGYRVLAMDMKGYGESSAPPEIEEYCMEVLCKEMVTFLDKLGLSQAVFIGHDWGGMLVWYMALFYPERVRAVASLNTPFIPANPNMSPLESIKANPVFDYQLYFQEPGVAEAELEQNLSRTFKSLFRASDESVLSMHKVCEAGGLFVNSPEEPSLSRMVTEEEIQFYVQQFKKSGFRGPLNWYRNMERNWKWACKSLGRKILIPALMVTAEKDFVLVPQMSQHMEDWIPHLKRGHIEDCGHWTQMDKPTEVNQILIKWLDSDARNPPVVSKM
# PROCEDURE_SUMMARY: sEH activity assay (PHOME fluorescence, cell-free)
# Format: biochemical
RECORDED_METRIC: IC50 (nM)

O=C(Nc1ccc(OCc2nc3ccccc3[nH]2)cc1)Nc1ccc(Cl)c(Cl)c1    10.5
Cc1cc(NC(=O)Nc2ccc(Cl)c(Cl)c2)ccc1OCc1nc2ccccc2n1C(=O)OC(C)(C)C    0.7
Cc1cc(NC(=S)Nc2ccc(Cl)c(Cl)c2)ccc1OCc1nc2ccccc2n1C(=O)OC(C)(C)C    17.5
Cc1cc(NC(=O)Nc2ccc(Cl)c(Cl)c2)ccc1OCc1nc2ccccc2[nH]1    4.9
Cc1cc(NC(=S)Nc2ccc(Cl)c(Cl)c2)ccc1OCc1nc2ccccc2[nH]1    772
CC(C)(C)OC(=O)n1c(COc2ccc(NC(=S)Nc3ccc(Cl)c(Cl)c3)cc2)nc2ccccc21    19.1
Cc1cc(OCc2nc3ccccc3[nH]2)ccc1NC(=S)Nc1ccc(Cl)c(Cl)c1    223
S=C(Nc1ccc(OCc2nc3ccccc3[nH]2)cc1)Nc1ccc(Cl)c(Cl)c1    271
Cc1cc(OCc2nc3ccccc3n2C(=O)OC(C)(C)C)ccc1NC(=O)Nc1ccc(Cl)c(Cl)c1    0.7
CC(C)(C)OC(=O)n1c(COc2ccc(NC(=O)Nc3ccc(Cl)c(Cl)c3)cc2)nc2ccccc21    0.63

---

# EXPERIMENTAL_TARGET: FLAP (5-LOX product formation) (Homo sapiens)
# Construct: Human neutrophils were isolated from buffy coats of healthy adult fasted donors; endogenous in cells; host or cells: primary human neutrophils from buffy coats
# Sequence (P20292 1-161): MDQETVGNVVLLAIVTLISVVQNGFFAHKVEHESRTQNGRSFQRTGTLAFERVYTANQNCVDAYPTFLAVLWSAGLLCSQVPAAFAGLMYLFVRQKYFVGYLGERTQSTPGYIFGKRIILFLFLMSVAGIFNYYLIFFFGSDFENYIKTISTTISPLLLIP
# PROCEDURE_SUMMARY: FLAP-dependent 5-LOX product formation in human neutrophils
# Assay type: cell-based
# REPORTED_CONDITIONS: human neutrophils, A23187 stimulated; read-out: FLAP (5-LOX product formation) IC50 ± SEM
pIC50: −log10 of the molar value.
Respond with true for pIC50 values of 6 and above, false for values below.

Cc1cc(NC(=S)Nc2ccc(Cl)c(Cl)c2)ccc1OCc1nc2ccccc2n1C(=O)OC(C)(C)C    false
CC(C)(C)OC(=O)n1c(COc2ccc(NC(=O)Nc3ccc(Cl)c(Cl)c3)cc2)nc2ccccc21    false
Cc1cc(OCc2nc3ccccc3n2C(=O)OC(C)(C)C)ccc1NC(=O)Nc1ccc(Cl)c(Cl)c1    false
S=C(Nc1ccc(OCc2nc3ccccc3[nH]2)cc1)Nc1ccc(Cl)c(Cl)c1    true
Cc1cc(OCc2nc3ccccc3[nH]2)ccc1NC(=S)Nc1ccc(Cl)c(Cl)c1    true
Cc1cc(OCc2nc3ccccc3n2C(=O)OC(C)(C)C)ccc1NC(=S)Nc1ccc(Cl)c(Cl)c1    false
